System: ACHN renal
Experiment summary: NCI-60 one-dose screen, 48 h (100 = growth as untreated, 0 = no growth, -100 = all killed)
Measurement conditions: 10 µM unless noted
The panel holds about 83,000 compounds, 20% with a hit somewhere; the sample as a whole holds those more often.
Give 1 when the value for growth is at least 80%. Give 0 when it is less.

Molecule | Assayed target | Group
COc1cc(/C=C/C(=O)c2ccc(Cl)cc2)cc(CN2CCCCC2)c1O | ACHN renal | 1

Q: Evaluate N#C/C(=C1\SC(=O)CN1c1ccccc1)c1nc2ccccc2s1 : growth at minimum 80%?
A: 1

Q: Could you verify whether the entry O=C(c1nc2ccccc2[nH]1)C1[C@@H](c2cccc(O)c2)C2CC3CCCCC3N2[C@@]12C(=O)Nc1cc(Cl)ccc12 (stereo partly drawn) shows growth of no less than 80%?
A: 0

Q: Hi team, for CC(=O)c1ccc(Nc2nc(NCCO)nc(Nc3ccc(Cl)cc3)n2)cc1 , is the recorded growth at or above 80%?
A: 1

Q: Could you verify whether the entry CCOC(=O)c1cc2c(n1Cc1cc(OC)c(OC)c(OC)c1)-c1oncc1CCC2 shows growth of no less than 80%?
A: 0

Q: Check this molecule for growth at or above 80%: COc1ccc(Cn2c(Br)c3c(c2-c2cc(OC)c(OC)c(OC)c2)CCc2sc(NC(=O)c4ccc(OC)cc4)nc2-3)cc1
A: 1

###

Test system: SK-OV-3 ovarian
Experiment summary: NCI-60 one-dose screen, 48 h
Measurement conditions: 10 µM unless noted
About 83,000 compounds went through this panel and 20% of them were active in at least one assay; those are over-represented in the sample as a whole. Active and inactive are the calls of the source. How the source made its calls: active means growth percent below 10; inactive means the rest.
Pick one: YES (active), NO (inactive)

Example results:
Compound | Group
FC(F)(F)c1cccc(CNC2CCN(CCc3ccccc3)CC2)c1 | NO
Nc1ccc(-n2c(=O)oc3ccc(Cl)cc3c2=O)c(Cl)c1 | YES
COc1ccc(-c2cc(=O)c3c(OC)c4ccoc4c(/C=C/C=O)c3o2)cc1 | NO
COc1cccc(-c2nn(C)c3sc(C(=O)NCCN4CCN(c5ccccc5F)CC4)cc23)c1 | NO

Q: Recorded test outcome, item CCOC(=O)C1=C(C)c2ccc(OC)c(OC)c2C1
A: NO

###

System: SR leukemia
Experiment summary: NCI-60 one-dose screen, 48 h (100 = growth as untreated, 0 = no growth, -100 = all killed)
Measurement conditions: 10 µM unless noted
The panel holds about 83,000 compounds, 20% with a hit somewhere; the sample as a whole holds those more often.
Exercise: state measured growth for each of the molecules provided.
Give bare numbers, in %.

For each of the items listed, what is its growth?
1. O=c1c(-c2nc3ccccc3[nH]2)cc2ccccc2n1Cc1cn(Cc2ccc(F)cc2)nn1
2. C=CCN1C(=O)/C(=c2\sc3n(c2=O)NC2C(N=3)N(CC)C(=O)N2CC)c2ccccc21 (stereo not given)
3. O=C(Cn1cc(COc2ncnc3c2cnn3-c2ccccc2)nn1)Nc1cccc2ccccc12
4. NC1(N2SC(S)=C3CCCC=C32)CCCCC1

A:
1. 30.2
2. 21.1
3. 101
4. 86.9

Q: // fetch growth for Cc1ccc(Cn2c(N3CCC(C(=O)NCc4cccs4)CC3)nc3ccccc32)cc1 ; system: SR leukemia
A: -37

###

Test system: COLO 205 colon
Experiment summary: NCI-60 one-dose screen, 48 h
Measurement conditions: 10 µM unless noted
Compounds without any hit were thinned out: in the full panel of roughly 83,000, 20% have a hit. Activity calls are given as the source filed them. The calls were made as follows: active = growth percent below 10; inactive = the rest.
Can you answer with just one of these options? active, inactive

Compound | Assayed target | Group
CN(C)c1ccc(/C=C/c2ccnc3c(O)cccc23)cc1 | COLO 205 colon | inactive
COC(=O)/C(CCC=C(C)C)=C1\[C@@H](OC(C)=O)C[C@@]2(C)[C@H]1C[C@@H](O)[C@H]1[C@@]3(C)CC[C@H](NCc4ccccc4)[C@@H](C)[C@@H]3CC[C@@]12C | COLO 205 colon | inactive
O=C1/C(=C/c2ccc(O)cc2)COc2ccc(O)c(O)c21 | COLO 205 colon | inactive
O=c1oc2ccc(I)cc2c(=O)n1-c1ccc(Cl)cc1F | COLO 205 colon | inactive
CCOC(=O)c1cc2c(n1Cc1ccccc1OC)-c1oncc1CCC2 | COLO 205 colon | active
O=C(Nc1ccc(I)cc1F)c1cc(Br)ccc1O | COLO 205 colon | inactive
CCOC(=O)c1c(Cl)c2c(n1Cc1ccccc1)-c1oncc1CCC2 | COLO 205 colon | inactive
O=C(O)CCCN1C(=O)C2C3CCC(C3)C2C1=O (stereo not given) | COLO 205 colon | inactive
COc1ccc(-c2cn[nH]c2-c2ccc(OC)c(O)c2)cc1 | COLO 205 colon | inactive
O=c1c(-c2nc3ccccc3[nH]2)cc2ccccc2n1Cc1cn(Cc2ccc(F)cc2)nn1 | COLO 205 colon | inactive

Q: So what was the verdict on NC(CCl)=NCCC[C@H](N)C(=O)O in this test?
A: inactive

Q: Lab log entry: O=C1N=c2ccccc2=C1c1sc(=Nc2ccccc2)n(Nc2ccccc2)c1O — outcome as called in the assay?
A: inactive

###

System: CCRF-CEM leukemia
Experiment summary: NCI-60 one-dose screen, 48 h (100 = growth as untreated, 0 = no growth, -100 = all killed)
Measurement conditions: 10 µM unless noted
Compounds without any hit were thinned out: in the full panel of roughly 83,000, 20% have a hit.
I'd be grateful if you could share measured growth for these entries.
One number for each entry, in %.

Previously resolved entries follow.
Compound | Measure unit | growth
O=C(/C=C/c1ccc(Cl)cc1)c1ccc(Nc2nc(NCCO)nc(N3CCOCC3)n2)cc1 | % | 82.8
COc1ccc(/C=C2/SC(=O)N(CC(=O)N3CCN(c4cc5c(cc4F)c(=O)c(C(=O)O)cn5C4CC4)CC3)C2=O)cc1 | % | 107
CCOC(=O)C1=C(C)N=c2s/c(=C\c3cc(Cl)ccc3O)c(=O)n2C1c1ccc(OC)cc1 (stereo not drawn) | % | 85.3
Nc1nc(Nc2cccc(F)c2)nc2ccccc12 | % | 26.2
c1ccc2c(c1)oc1cc3sccc3nc12 | % | 100

Could you tell me growth for each of these compounds? They are listed below.
1. COC(=O)C1(C)COP(=O)(Nc2ccc(OC)cc2)OC1 (stereo not drawn)
2. COc1ccc(Cn2cc(Cn3c(=O)c(-c4nc5ccccc5[nH]4)cc4ccccc43)nn2)c(OC)c1OC
3. COc1ccc(C2=NN(/C=C3\SC(=O)NC3=Nc3ccc(F)cc3)C(c3ccc(F)cc3)C2)cc1 (stereo not drawn)

A:
1. 102
2. 22.6
3. 102

###

System: OVCAR-8 ovarian
Experiment summary: NCI-60 one-dose screen, 48 h (100 = growth as untreated, 0 = no growth, -100 = all killed)
Measurement conditions: 10 µM unless noted
About 83,000 compounds went through this panel and 20% of them were active in at least one assay; those are over-represented in the sample as a whole.
Assay readout: growth (%)
Numbers only, in %.

Compound | Observed result
COc1cc(C(=O)NN=C2c3ccccc3-c3ccccc32)cc(OC)c1OC | 34.5
COc1ccc(Nc2nc(N/N=C/c3ccc(O)cc3)nc(Nc3ccc([N+](=O)[O-])cc3)n2)cc1 | 100
Brc1ccc(Oc2ccc(Nc3ncnc4onc(-c5ccccc5)c34)cc2)cc1 | 97.8
O=C(NC1C(O)OC(CO)C(O)C1O)NS(=O)(=O)c1ccc(Cl)cc1 (stereo not drawn) | 102

Look at each compound and report its growth.
1. CCOC(=O)C1=C(C)N=c2s/c(=C\c3cc(Cl)ccc3O)c(=O)n2C1c1ccc(OC)cc1 (stereo not drawn)
2. Cn1c2c(c(=O)[nH]c1=O)NC1=C(C(=O)c3ccccc31)C1(C=C(O)c3ccccc31)N2 (stereo not drawn)
3. O=C1c2cc(I)ccc2Oc2cc([N+](=O)[O-])ccc2N1c1ccc(Cl)cc1F
4. O=C(CCc1nnc2sc(Cc3ccccc3Cl)nn12)c1nc2ncccc2[nH]1

A:
[90.4, 107, 91, 93.4]

###

Test system: U251 CNS
Experiment summary: NCI-60 one-dose screen, 48 h
Measurement conditions: 10 µM unless noted
Method: Growth inhibition of the U251 human tumor cell line is measured as a screen for anti-cancer activity. Cells are grown in 96 well plates and exposed to the test compound for 48 hours. Compounds are tested at a single concentration, which is 10^-5 M for most compounds. The reported endpoint is percent growth (GI% or GIPRCNT), where numbers from 0 - 100% represent growth inhibition, and numbers from -100% - 0 represent cell death. For example, a value of 40 represents 60% growth inhibition. […]
The panel holds about 83,000 compounds, 20% with a hit somewhere; the sample as a whole holds those more often. Active and inactive are the calls of the source. Rule for the calls: active = growth percent below 10; inactive = the rest.
API: response.call in yes = active, no = inactive

Below are worked cases with known answers.
Molecule | Assayed target | Group
O=c1c2cc(F)ccc2sc2c(NCCN3CCCC3)nc3ccccc3c12 | U251 CNS | no
NS(=O)(=O)c1ccc(CCN=C=S)cc1 | U251 CNS | no
COc1ccc(/C=C/C(=O)c2ccc3cc(OC)c(OC)cc3c2)cc1OC | U251 CNS | no
CC(C)c1ccc(S(=O)(=O)NC(=O)NC2CCCC2)cc1 | U251 CNS | no
O=C(/C=C/c1ccc(Cl)cc1)c1ccc(Nc2nc(NCCO)nc(Nc3ccc(Cl)cc3)n2)cc1 | U251 CNS | no

Shifting focus to the molecule that follows.
Q: For this molecule, state the assay outcome: COc1ccccc1CNC(=O)C1c2ccccc2C(=O)N(CC(C)C)C1c1cccs1 (centres undefined)
A: no
